B1: RHOBTB2 (parent)
chain: HHHHGRDFLLRAASFDVCESVDEA

- Variants of: B1
- PROTOCOL TEXT: protein stability index of a GFP-peptide fusion (GPS, HEK-293T) (PSI 1-6); higher = more stable;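 note: lentivirally expressed fusions sorted by FACS into six bins by GFP to DsRed ratio, PSI derived from sequencing read proportions per bin multiplied by bin number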
- RECORDED CONDITIONS: c terminus: a fixed tail appended
Rule: protein stability index of 4 or more gives t; anything lower gives f.

Study these solved cases before continuing.
>>> group("R6N")
"t"
>>> group("H2E")
"t"
>>> group("L10E")
"t"
>>> group("R6H")
"t"
>>> group("G5I")
"f"

Task: Is reported protein stability index greater than or equal to 4 here: H1A
Output: t

Task: Is reported protein stability index greater than or equal to 4 here: L9M
Output: t

Task: Is reported protein stability index greater than or equal to 4 here: H2N
Output: t

Task: Is reported protein stability index greater than or equal to 4 here: R6I
Output: f

Task: Is reported protein stability index greater than or equal to 4 here: H2S
Output: f
